Test system: HT29 RAMS11 overexpressing cells
procedure.summary: High-throughput viability assay (resazurin), 119 FDA-approved anticancer drugs, RAMS11 overexpressing cells (Clone1, Clone2)
test.settings: OE1 (RAMS11 overexpression clone 1), 0.1 uM drug, 72 h, vs empty vector control
Where a name gives a salt, the structure may show the parent alone. Starred links: 1 amine or outer side, 2 acyl side, 3 side chain; linkers in the order of their positions; H or OH if unused. Positions of bridges follow the written chain, without caps; N, C: chain ends. Non-standard residues stand in square brackets, D forms with d. Residues, ends and D or L forms follow the SMILES beside them. Chains are numbered I, II in the order given. Actinocin(9to1) = Cc1c2oc3c(C)ccc(C(=O)[*:1])c3nc-2c(C(=O)[*:2])c(N)c1=O; NMeV = CN[C@H](C(=O)O)C(C)C; Sar = CNCC(=O)O
reported.metric: Viability Fold Change

[[record]]
molecule = "N#Cc1ccc(C(c2ccc(C#N)cc2)n2cncn2)cc1"
experimental_target = "HT29 RAMS11 overexpressing cells"
test_value = 0.9923

[[record]]
molecule = "CC(C)(C#N)c1cc(Cn2cncn2)cc(C(C)(C)C#N)c1"
experimental_target = "HT29 RAMS11 overexpressing cells"
test_value = 0.876

[[record]]
molecule = "Nc1nc(Cl)nc2c1ncn2[C@H]1C[C@H](O)[C@@H](CO)O1"
experimental_target = "HT29 RAMS11 overexpressing cells"
test_value = 0.8736

[[record]]
molecule = "Cc1c2oc3c(C)ccc(C(=O)N[C@@H]4C(=O)N[C@H](C(C)C)C(=O)N5CCC[C@H]5C(=O)N(C)CC(=O)N(C)[C@@H](C(C)C)C(=O)O[C@@H]4C)c3nc-2c(C(=O)N[C@@H]2C(=O)N[C@H](C(C)C)C(=O)N3CCC[C@H]3C(=O)N(C)CC(=O)N(C)[C@@H](C(C)C)C(=O)O[C@@H]2C)c(N)c1=O [Dactinomycin] (I: T[dV]P[Sar][NMeV] / II: T[dV]P[Sar][NMeV]; ester I:1-I:C, II:1-II:C; linker I:N-II:N via Actinocin(9to1))"
experimental_target = "HT29 RAMS11 overexpressing cells"
test_value = 1.513

[[record]]
molecule = "COc1cccc2c1C(=O)c1c(O)c3c(c(O)c1C2=O)C[C@@](O)(C(=O)CO)C[C@@H]3O[C@H]1C[C@H](N)[C@@H](O)[C@H](C)O1 [Epirubicin hydrochloride]"
experimental_target = "HT29 RAMS11 overexpressing cells"
test_value = 1.025

[[record]]
molecule = "COc1cc([C@@H]2c3cc4c(cc3C(O[C@@H]3O[C@@H]5CO[C@@H](C)O[C@H]5[C@H](O)[C@H]3O)C3COC(=O)[C@@H]32)OCO4)cc(OC)c1O (stereo partly shown) [Etopside]"
experimental_target = "HT29 RAMS11 overexpressing cells"
test_value = 1.144

[[record]]
molecule = "Cc1nc(Nc2ncc(C(=O)Nc3c(C)cccc3Cl)s2)cc(N2CCN(CCO)CC2)n1"
experimental_target = "HT29 RAMS11 overexpressing cells"
test_value = 0.7242

[[record]]
molecule = "OC[C@H]1O[C@@H](n2cnc3c2NC=NC[C@H]3O)C[C@@H]1O"
experimental_target = "HT29 RAMS11 overexpressing cells"
test_value = 0.9312

[[record]]
molecule = "O=C(/C=C/c1cccc(S(=O)(=O)Nc2ccccc2)c1)NO"
experimental_target = "HT29 RAMS11 overexpressing cells"
test_value = 0.9138

[[record]]
molecule = "C[C@]12CC[C@@H]3c4ccc(OC(=O)N(CCCl)CCCl)cc4CC[C@H]3[C@@H]1CC[C@@H]2O"
experimental_target = "HT29 RAMS11 overexpressing cells"
test_value = 0.97


###

# maps each entry to its Viability Fold Change
Test system: HT29 RAMS11 overexpressing cells
procedure.summary: High-throughput viability assay (resazurin), 119 FDA-approved anticancer drugs, RAMS11 overexpressing cells (Clone1, Clone2)
test.settings: OE1 (RAMS11 overexpression clone 1), 1 uM drug, 72 h, vs empty vector control
reported.metric: Viability Fold Change

[[record]]
compound = "C[C@@H](CN1CC(=O)NC(=O)C1)N1CC(=O)NC(=O)C1 [Dexrazoxane]"
test_value = 0.9814

[[record]]
compound = "Nc1nc(F)nc2c1ncn2[C@@H]1O[C@H](CO)[C@@H](O)[C@@H]1O [Fludarabine]"
test_value = 0.9921

[[record]]
compound = "S=c1nc[nH]c2nc[nH]c12 [Mercaptopurine]"
test_value = 0.9982


###

Test system: HT29 RAMS11 overexpressing cells
procedure.summary: High-throughput viability assay (resazurin), 119 FDA-approved anticancer drugs, RAMS11 overexpressing cells (Clone1, Clone2)
test.settings: OE1 (RAMS11 overexpression clone 1), 0.1 uM drug, 72 h, vs empty vector control
Counter-ions that a name gives are not always drawn.
# Viability Fold Change >= 1 gives 1, anything below gives -1

[[record]]
compound = "C#CCC(Cc1cnc2nc(N)nc(N)c2n1)c1ccc(C(=O)N[C@@H](CCC(=O)O)C(=O)O)cc1 (stereo partly drawn) [Pralatrexate]"
experimental_target = "HT29 RAMS11 overexpressing cells"
category_label = -1

[[record]]
compound = "CCC1=C[C@@H]2CN(C1)Cc1c([nH]c3ccccc13)[C@@](C(=O)OC)(c1cc3c(cc1OC)N(C)[C@H]1[C@@](O)(C(=O)OC)[C@H](OC(C)=O)[C@]4(CC)C=CCN5CC[C@]31[C@@H]54)C2 [Vinorelbine tartrate]"
experimental_target = "HT29 RAMS11 overexpressing cells"
category_label = -1

[[record]]
compound = "CNC(=O)c1ccc(N2C(=S)N(c3ccc(C#N)c(C(F)(F)F)c3)C(=O)C2(C)C)cc1F [Enzalutamide]"
experimental_target = "HT29 RAMS11 overexpressing cells"
category_label = 1

[[record]]
compound = "CCN(CC)CCNC(=O)c1c(C)[nH]c(/C=C2\\C(=O)Nc3ccc(F)cc32)c1C"
experimental_target = "HT29 RAMS11 overexpressing cells"
category_label = -1

[[record]]
compound = "CC/C(=C(\\c1ccccc1)c1ccc(OCCN(C)C)cc1)c1ccccc1 [Tamoxifen Citrate]"
experimental_target = "HT29 RAMS11 overexpressing cells"
category_label = 1

[[record]]
compound = "CN(C)C/C=C/C(=O)Nc1cc2c(Nc3ccc(F)c(Cl)c3)ncnc2cc1O[C@H]1CCOC1"
experimental_target = "HT29 RAMS11 overexpressing cells"
category_label = 1

[[record]]
compound = "CO[C@H]1C(=O)[C@]2(C)[C@@H](OC)C[C@H]3OC[C@@]3(OC(C)=O)[C@H]2[C@H](OC(=O)c2ccccc2)[C@]2(O)C[C@H](OC(=O)[C@H](O)[C@@H](NC(=O)OC(C)(C)C)c3ccccc3)C(C)=C1C2(C)C"
experimental_target = "HT29 RAMS11 overexpressing cells"
category_label = 1


###

# maps each entry to its Viability Fold Change
Tested on: HT29 RAMS11 overexpressing cells
procedure.summary: High-throughput viability assay (resazurin), 119 FDA-approved anticancer drugs, RAMS11 overexpressing cells (Clone1, Clone2)
test.settings: OE1 (RAMS11 overexpression clone 1), 0.1 uM drug, 72 h, vs empty vector control
reported.metric: Viability Fold Change

[[record]]
molecule = "Cc1ccc(-c2cc(C(F)(F)F)nn2-c2ccc(S(N)(=O)=O)cc2)cc1"
test_value = 0.8767

[[record]]
molecule = "O=C1[O][Pt]2([NH][C@@H]3CCCC[C@H]3[NH]2)[O]C1=O [oxaliplatin, reference compound]"
test_value = 0.9127

[[record]]
molecule = "Nc1ncn([C@H]2C[C@H](O)[C@@H](CO)O2)c(=O)n1"
test_value = 0.9064

[[record]]
molecule = "COc1cc2c(Nc3ccc(Br)cc3F)ncnc2cc1OCC1CCN(C)CC1"
test_value = 0.9025


###

System: HT29 RAMS11 overexpressing cells
procedure.summary: High-throughput viability assay (resazurin), 119 FDA-approved anticancer drugs, RAMS11 overexpressing cells (Clone1, Clone2)
test.settings: OE1 (RAMS11 overexpression clone 1), 1 uM drug, 72 h, vs empty vector control
# maps each entry to its Viability Fold Change
reported.metric: Viability Fold Change

[[record]]
compound = "Cc1cc(Nc2ncc(Cl)c(Nc3ccccc3S(=O)(=O)C(C)C)n2)c(OC(C)C)cc1C1CCNCC1"
experimental_target = "HT29 RAMS11 overexpressing cells"
reported_metric = "Viability Fold Change"
test_value = 1.015

[[record]]
compound = "N[C@@H](Cc1ccc(N(CCCl)CCCl)cc1)C(=O)O"
experimental_target = "HT29 RAMS11 overexpressing cells"
reported_metric = "Viability Fold Change"
test_value = 1.006

[[record]]
compound = "Nc1cccc2c1CN(C1CCC(=O)NC1=O)C2=O (stereo not shown) [Lenalidomide]"
experimental_target = "HT29 RAMS11 overexpressing cells"
reported_metric = "Viability Fold Change"
test_value = 1.021

[[record]]
compound = "COc1cc2nccc(Oc3ccc(NC(=O)C4(C(=O)Nc5ccc(F)cc5)CC4)cc3)c2cc1OC [Cabozantinib]"
experimental_target = "HT29 RAMS11 overexpressing cells"
reported_metric = "Viability Fold Change"
test_value = 1.012


Values from patent US12024707B2
